tgt: PDE2A (Rattus norvegicus)
Construct: Twenty μm-thick striatal sections were cut; from tissue; host or cells: rat brain, striatal sections
Sequence (Q01062 1-928): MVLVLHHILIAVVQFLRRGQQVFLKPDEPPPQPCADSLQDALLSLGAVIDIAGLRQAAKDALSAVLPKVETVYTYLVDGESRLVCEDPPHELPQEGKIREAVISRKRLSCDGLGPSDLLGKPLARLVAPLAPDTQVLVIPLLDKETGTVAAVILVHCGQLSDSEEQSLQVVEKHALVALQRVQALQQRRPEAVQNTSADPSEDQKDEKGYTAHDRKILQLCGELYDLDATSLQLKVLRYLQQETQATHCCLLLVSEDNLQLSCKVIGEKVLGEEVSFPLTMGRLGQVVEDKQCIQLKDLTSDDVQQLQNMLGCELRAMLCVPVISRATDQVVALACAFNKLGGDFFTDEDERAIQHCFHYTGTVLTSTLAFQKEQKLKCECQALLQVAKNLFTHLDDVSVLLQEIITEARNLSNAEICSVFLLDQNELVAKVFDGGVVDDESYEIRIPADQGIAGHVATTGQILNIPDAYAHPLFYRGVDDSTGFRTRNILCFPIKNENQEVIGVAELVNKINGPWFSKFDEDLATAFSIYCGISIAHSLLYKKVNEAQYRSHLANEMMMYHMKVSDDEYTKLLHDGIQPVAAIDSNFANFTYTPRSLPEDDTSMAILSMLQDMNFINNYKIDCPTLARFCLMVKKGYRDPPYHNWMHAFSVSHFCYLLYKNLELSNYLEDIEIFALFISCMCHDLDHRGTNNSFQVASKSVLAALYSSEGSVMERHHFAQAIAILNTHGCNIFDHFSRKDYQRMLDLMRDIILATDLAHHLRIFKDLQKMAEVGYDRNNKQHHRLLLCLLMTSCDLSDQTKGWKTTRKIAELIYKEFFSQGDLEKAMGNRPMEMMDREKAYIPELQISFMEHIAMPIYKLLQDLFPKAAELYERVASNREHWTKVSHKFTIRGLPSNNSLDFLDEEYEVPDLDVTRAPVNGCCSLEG
testName: PDE2 occupancy by test compounds, ex-vivo autoradiography with [3H]B-17a
Format: in vivo, Male Wistar rats
conditionDescription: 10 mg/kg, route PO (oral), percentage receptor occupancy, ex-vivo autoradiography, striatum
measuredParameter: receptor occupancy at 10 mg/kg
Answer with the value and then the unit.

Record excerpt, results attached:
INSERT INTO assay_data (inputsmiles, testresult) VALUES
  ('Cc1cc(Cl)cc(C(=O)N2[C@H]3CC[C@H](c4cc(C(F)F)nc5ncnn45)[C@@H]2CC3)c1', '-1%'),
  ('Cc1cc(C(=O)N2[C@H]3CC[C@H](c4cc(C(F)F)nc5ncnn45)[C@@H]2CC3)cc(OC(F)F)n1', '6%'),
  ('Cc1ccc(C(=O)N2[C@H]3CC[C@H](c4cc(C(F)F)nc5ncnn45)[C@@H]2CC3)cc1Cl', '9%'),
  ('CN(C)c1ccc(C(=O)N2[C@H]3CC[C@H](c4cc(C(F)F)nc5ncnn45)[C@@H]2CC3)cc1', '3%'),
  ('Cc1csc(C(=O)N2[C@H]3CC[C@H](c4cc(C(F)F)nc5ncnn45)[C@@H]2CC3)c1', '11%');

For every record below, what is its receptor occupancy at 10 mg/kg?
1. O=C(c1ccc2ccccc2n1)N1[C@H]2CC[C@H](c3cc(C(F)F)nc4ncnn34)[C@@H]1CC2
2. O=C(c1cc(OC(F)F)cc(C2CC2)c1)N1[C@H]2CC[C@H](c3cc(C(F)F)nc4ncnn34)[C@@H]1CC2

18%
16%
